B1: HDV Ribozyme (parent)
chain: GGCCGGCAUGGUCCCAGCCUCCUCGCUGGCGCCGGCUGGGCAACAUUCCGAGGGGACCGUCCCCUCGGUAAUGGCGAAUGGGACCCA

variants of: B1; test: self-cleavage, relative activity (ratio to wild type); higher = more cleavage; co-transcriptional
Would you kindly list self-cleavage for each of these variants?
Answers are plain numbers.

Answered cases to consult:
GGCCGGCAUGGUCCCAGCCUCCUCGCUGGCGCCGGCUGGGCAACAUUCCGCGGGGACCGUCCCCUCGGUAAUGGCGAAUGGGACCGA [A51C C86G] | 0.712
GGCCGUCGUGGUCCCAGCCUCCUCGCUGGCGCCGGCUGGGCAACAUUCCGAGGGGACCGUCCCCUCGGUAAUGGCGAAUGGGACCCA [G6U A8G] | 0.346
GGCCGGCAUGGUCUCAGCCUCCACGCUGGCGCCGGCUGGGCAACAUUCCGAGGGGACCGUCCCCUCGGUAAUGGCGAAUGGGACCCA [C14U U23A] | 1.04
GGCCGGCAUGGUCCCAGCCUCCCCGCUAGCGCCGGCUGGGCAACAUUCCGAGGGGACCGUCCCCUCGGUAAUGGCGAAUGGGACCCA [U23C G28A] | 0.0396

Quick request: self-cleavage for each listed item, please.
1. GGCCGGCAUGGUCCCAGCCUCCUCGCUGGCGCCGGCUGGGCAACAUUCAGAGGGGACCGUCCCCUCGGUAAUGGCGAAUGGGAACCA [C49A C84A]
2. GGCCGGCAUGGUCCCAGCCUCCUCGCUGGCGCCGGCUGGGCAACAUACCGAGGGGACCGUCCCCUCGGUAUUGGCGAAUGGGACCCA [U47A A71U]
3. GGCCGGCAUGGUCCGAGCCUCAUCGCUGGCGCCGGCUGGGCAACAUUCCGAGGGGACCGUCCCCUCGGUAAUGGCGAAUGGGACCCA [C15G C22A]
4. GGCUGGCAUGGUCCCAGCCUCCUCGAUGGCGCCGGCUGGGCAACAUUCCGAGGGGACCGUCCCCUCGGUAAUGGCGAAUGGGACCCA [C4U C26A]
5. GGCCGGCAUGAUCCCAGCCUCCUCGCUGGCGCCGGAUGGGCAACAUUCCGAGGGGACCGUCCCCUCGGUAAUGGCGAAUGGGACCCA [G11A C36A]
6. GGCCGGCAUGGUCCCAGCCUCCUCGCUGGCGCCGGCUGGGCAACAUUCCGAGGGGACCGUCACCUCGGUACUGGCGAAUGGGACCCA [C62A A71C]

Result:
1. 1.05
2. 0.657
3. 0.0504
4. 0.773
5. 0.0446
6. 0.85

Quick request: self-cleavage for each listed item, please.
1. GGCCGGCAUGGUCCCAGCCUCCUCGUUGGCGCCGGCUGGGAAACAUUCCGAGGGGACCGUCCCCUCGGUAAUGGCGAAUGGGACCCA [C26U C41A]
2. GGCCGGCAUGGUCCCAGACUCCUCACUGGCGCCGGCUGGGCAACAUUCCGAGGGGACCGUCCCCUCGGUAAUGGCGAAUGGGACCCA [C18A G25A]
3. GGCCGGCAUGGUCCCAGCCUCCUCGCUGGCGCCGGCUGGGCAACAUUCCGAGGGGACCGUCCCCUCGGUAAUGGCGGAUGGGACCAA [A77G C86A]

Result:
1: 1.15; 2: 0.133; 3: 1.15
